# Kd per record follows
Target: GDP-bound KRAS wild-type protein (Homo sapiens, UniProt P01116)
Sequence (P01116 1-188 isoform P01116-2): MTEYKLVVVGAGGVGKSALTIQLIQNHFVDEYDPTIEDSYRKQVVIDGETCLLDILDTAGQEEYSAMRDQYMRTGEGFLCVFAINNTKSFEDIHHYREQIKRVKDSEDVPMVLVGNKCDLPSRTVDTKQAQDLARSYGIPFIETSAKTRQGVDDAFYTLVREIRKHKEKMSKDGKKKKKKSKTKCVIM
Test: Binding to KRAS by surface plasmon resonance (SPR), dissociation constant KD
Conditions: 1:1 binding model
*1 amine or outer side, *2 acyl side, *3 side chain or, on linkers, in order; H or OH if unused. Where a SMILES comes first, the peptide text is derived from it. Bridges are numbered along the chain shown (N, C = ends). [ ]: non-standard residue; d: D form. The star is where a group is joined. X6 = CC(C)(C)CCN([C@@H](Cc1ccc(C(F)(F)F)cc1)C(=O)[*:2])[*:1]; hPhe(3-Cl-4-CF3) = N[C@@H](CCc1ccc(C(F)(F)F)c(Cl)c1)C(=O)O; NMeGly(cPent) = CN[C@H](C(=O)O)C1CCCC1; NMeD = CN[C@@H](CC(=O)O)C(=O)O; NMeL = CN[C@@H](CC(C)C)C(=O)O; Morpholide = C1CN(*)CCO1; NMeA = CN[C@@H](C)C(=O)O; Ac5c = NC1(C(=O)O)CCCC1; Aze = O=C(O)[C@@H]1CCN1; Sar = CNCC(=O)O
Please respond with the number in nM and leave the unit unwritten.

Please review the entries below; each comes with its answer.
{"compound": "CCC(CC)[C@H]1C(=O)N(C)[C@H](C(=O)N(C)C)CC(=O)N(C)[C@@H](COC)C(=O)N[C@@H]([C@@H](C)CC)C(=O)N(C)CC(=O)N(C)[C@H]2C/C=C\\CCN(C2=O)[C@@H](Cc2ccc(C)cc2)C(=O)N(C)CC(=O)N[C@@H](CCc2cc(F)c(C(F)(F)F)c(F)c2)C(=O)N2CCCCC[C@H]2C(=O)NC2(CC(C)(C)C2)C(=O)N1C [PP2960]", "measurement-type": "Kd", "value-measured": 0.32}
{"compound": "CCOC[C@H]1C(=O)N[C@@H]([C@@H](C)CC)C(=O)N(C)CC(=O)N(C)[C@H]2C/C=C\\CCN(C2=O)[C@@H](Cc2ccc(C)cc2)C(=O)N(C)CC(=O)N[C@@H](CCc2cc(F)c(C(F)(F)F)c(F)c2)C(=O)N2C[C@H](OCC)C[C@H]2C(=O)NC2(CC(C)(C)C2)C(=O)N(C)[C@@H](C2CCCC2)C(=O)N(C)[C@H](C(=O)N(CC)CC)CC(=O)N1C [PP2408]", "measurement-type": "Kd", "value-measured": 0.23}
{"compound": "CCO[C@@H]1C[C@H]2C(=O)NC3(CC(C)(C)C3)C(=O)N(C)[C@@H](C3CCCC3)C(=O)N(C)[C@H](C(=O)N(C)CC)CC(=O)N(C)[C@@H](CC(C)C)C(=O)N[C@@H]([C@@H](C)CC)C(=O)N(C)CC(=O)N(C)[C@H]3C/C=C\\CCN(C3=O)[C@@H](Cc3ccc(C(F)F)cc3)C(=O)N(C)CC(=O)N[C@@H](CCc3ccc(C4CC4)c(OC)c3)C(=O)N2C1 [PP3153]", "measurement-type": "Kd", "value-measured": 1.4}

Specify reported Kd for the compound shown: CCC[C@H]1C(=O)N[C@@H]([C@@H](C)CC)C(=O)N(C)CC(=O)N(C)[C@H]2C/C=C\CCN(C2=O)[C@@H](Cc2ccc(C(F)(F)F)cc2)C(=O)N(C)CC(=O)N[C@@H](CCc2ccc(C(F)(F)F)c(Cl)c2)C(=O)N2CC3(CC3)C[C@H]2C(=O)NC2(CC(C)(C)C2)C(=O)N(C)[C@@H](CC(F)(F)F)C(=O)N(C)[C@H](C(=O)N(C)C)CC(=O)N1C [PP2985]
1.4

Specify reported Kd for the compound shown: CCO[C@@H]1C[C@H]2C(=O)NC3(CC(C)(C)C3)C(=O)N(C)[C@@H](C(CC)CC)C(=O)N(C)[C@H](C(=O)N(C)C)CC(=O)N(C)[C@@H](COC)C(=O)N[C@@H]([C@@H](C)CC)C(=O)N(C)CC(=O)N(C)[C@H]3C/C=C\CCN(C3=O)[C@@H](CC3CCC(F)(F)CC3)C(=O)N(C)CC(=O)N[C@@H](CCc3ccc(C(F)(F)F)c(Cl)c3)C(=O)N2C1 [PP2444]
0.59

Specify reported Kd for the compound shown: CC[C@H](C)[C@@H]1NC(=O)[C@H](CC(C)C)N(C)C(=O)C[C@@H](C(=O)N2CCOCC2)N(C)C(=O)[C@H](C2CCCC2)N(C)C(=O)C2(CCCC2)NC(=O)[C@@H]2CCCN2C(=O)[C@H](CCc2ccc(C(F)(F)F)c(Cl)c2)NC(=O)CN(C)C(=O)[C@H](Cc2ccc(C(F)(F)F)cc2)N(CCC(C)(C)C)C(=O)[C@@H]2CCN2C(=O)[C@H](C)N(C)C1=O [PP0113] ([NMeL]I[NMeA][Aze][X6][Sar][hPhe(3-Cl-4-CF3)]P[Ac5c][NMeGly(cPent)][NMeD]-Morpholide; lactam N-11)
0.75
